Target: IKKε (Homo sapiens, UniProt Q14164)
Construct: TBK1 and IKKε were expressed and purified as full length recombinant proteins
Sequence (Q14164 whole entry): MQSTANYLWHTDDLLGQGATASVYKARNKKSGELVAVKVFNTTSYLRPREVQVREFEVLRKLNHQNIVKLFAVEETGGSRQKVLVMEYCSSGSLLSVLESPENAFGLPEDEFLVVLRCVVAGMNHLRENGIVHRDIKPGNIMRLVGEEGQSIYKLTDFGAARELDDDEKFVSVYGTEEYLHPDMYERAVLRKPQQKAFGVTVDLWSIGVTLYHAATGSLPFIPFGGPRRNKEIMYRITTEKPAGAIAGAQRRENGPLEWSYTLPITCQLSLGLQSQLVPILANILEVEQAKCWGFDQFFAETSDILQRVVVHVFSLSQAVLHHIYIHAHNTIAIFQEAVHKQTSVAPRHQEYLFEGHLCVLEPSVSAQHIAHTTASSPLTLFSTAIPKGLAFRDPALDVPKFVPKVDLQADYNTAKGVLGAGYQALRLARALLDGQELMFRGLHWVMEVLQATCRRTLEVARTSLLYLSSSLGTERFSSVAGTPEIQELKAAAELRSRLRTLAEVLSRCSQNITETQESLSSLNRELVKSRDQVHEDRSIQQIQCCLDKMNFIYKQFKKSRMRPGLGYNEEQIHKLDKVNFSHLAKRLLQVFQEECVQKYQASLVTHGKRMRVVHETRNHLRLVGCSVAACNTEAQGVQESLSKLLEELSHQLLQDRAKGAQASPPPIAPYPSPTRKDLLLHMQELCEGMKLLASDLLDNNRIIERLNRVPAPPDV
Experiment: TR-FRET enzymatic activity assay, IKKε; also: full length recombinant IKKε at 0.3 nM
Settings: read-out: IKKϵ IC50
MEASUREMENT_LABEL: IC50 (µM)

COC(=O)[C@@H]1C[C@H]1C(=O)Nc1cc(-c2ccc(O[C@H]3CCN(C(=O)CO)C[C@H]3F)c(C#N)c2)ccn1 (relative stereo) : 0.0533
Cn1cc([C@@H]2C[C@H]2C(=O)Nc2cc(-c3ccc(O[C@H]4CCN(C(=O)[C@@H](O)CO)CC4(F)F)c(C#N)c3)ncn2)cn1 : 0.0123
N#Cc1cc(-c2ccnc(NC(=O)C3CCCCC3)c2)ccc1OC1CCOCC1 : 0.331
CC1(C)C[C@@H]1C(=O)Nc1cc(-c2ccc(O[C@H]3CCN(C(=O)CO)C[C@H]3F)c(C#N)c2)ccn1 : 0.133

(I) Cn1cc([C@H]2C[C@@H]2C(=O)Nc2cc(-c3ccc(O[C@H]4CCN(C(=O)CO)CC4(F)F)c(C#N)c3)ccn2)cn1
(II) N#Cc1cc(-c2cc(NC(=O)C3CC3)ncn2)ccc1O[C@@H]1CCN(C(=O)CO)C[C@H]1F
Sorting ascending by IC50, which comes first: I or II ? Mark your selection by writing its label.
I
(I: 0.0049 µM, II: 0.254 µM)

(A) N#Cc1cc(-c2ccnc(NC(=O)[C@@H]3C[C@H]3C=O)c2)ccc1OC1CCOCC1 (relative stereo)
(B) C[C@H](O)C(=O)N1CC[C@H](Oc2ccc(-c3ccnc(NC(=O)C4CC4)c3)cc2C#N)C(F)(F)C1
Sorting ascending by IC50, which comes first: A or B ? Mark your selection by writing its label.
B
(B: 0.0263 µM, A: 0.065 µM)
